Measured lowest phenotypically active concentration values are reported for all entries that follow.
- System: A549-TP53BP1-CLTA
- RUN DESCRIPTION: lowest phenotypically active concentration; higher = less potent
- CONDITION NOTES: treatment time: 24 h
MEASURED METRIC: lowest phenotypically active concentration

COC(=O)[C@@]1(O)C[C@H]2O[C@]1(C)n1c3ccccc3c3c4c(c5c6ccccc6n2c5c31)C(=O)NC4 :: ≤ 0.3 µM
CCn1cnc2c(Nc3cccc(Cl)c3)nc(N[C@H]3CCCC[C@H]3N)nc21 :: 1 µM
COc1cc2c(c(OC)c1OC)-c1ccc(O)c(=O)cc1[C@@H](N)CC2 :: 9 µM
C[C@H]1CCCC=C[C@@H]2C[C@H](O)C[C@H]2[C@H](O)C=CC(=O)O1 :: ≤ 0.3 µM
Cc1sc2c(c1C)C(c1ccc(Cl)cc1)=N[C@@H](CC(N)=O)c1nnc(C)n1-2 :: ≤ 0.3 µM
C[C@]12CC[C@H](O)C[C@H]1CC[C@@H]1[C@@H]2CC[C@]2(C)[C@@H](C3=CC(=O)OC3)CC[C@]12O :: ≤ 0.3 µM
C=C1[C@@H](C)[C@H]2[C@H](Cc3ccccc3)NC(=O)[C@]23OC(=O)C=C[C@H](O)CCC[C@@H](C)CC=C[C@H]3[C@@H]1O :: 3 µM

---

- Test system: WPMY1-CANX-COX4
- RUN DESCRIPTION: phenotypically active (imaging signature differs from DMSO and reproducible) at any of 0.3-9 uM (binary (1 = active, 0 = inactive)); higher = active
- CONDITION NOTES: treatment time: 24 h
Where a name gives a salt, the structure may show the parent alone.
Overview of recorded phenotypically active for various molecules
MEASURED METRIC: phenotypically active

C[C@@H]1O[C@@H](O[C@H]2C[C@@H](O)[C@]3(CO)[C@H]4[C@H](O)C[C@]5(C)[C@@H](C6=CC(=O)OC6)CC[C@]5(O)[C@@H]4CC[C@]3(O)C2)[C@H](O)[C@H](O)[C@H]1O [Strophantine octahydrate] :: 1
CN1C(CC(O)c2ccccc2)CCCC1CC(O)c1ccccc1 (stereo unspecified) [Lobelanidine hydrochloride] :: 0
C[C@H]1CCC2(NC1)O[C@H]1C[C@H]3[C@@H]4CC[C@H]5C[C@@H](O[C@@H]6O[C@H](CO)[C@H](O[C@@H]7O[C@H](CO)[C@@H](O)[C@H](O[C@@H]8OC[C@@H](O)[C@H](O)[C@H]8O)[C@H]7O[C@@H]7O[C@H](CO)[C@@H](O)[C@H](O)[C@H]7O)[C@H](O)[C@H]6O)CC[C@]5(C)[C@H]4CC[C@]3(C)[C@H]1[C@@H]2C (stereo partly specified) [Tomatine] :: 0
N[C@@H]1C[C@H]1c1ccccc1 [Tranylcypromine hydrochloride] :: 0
CC1=C(O)C(=O)[C@@H]2O[C@@H]2C1=O [(-)-Terreic acid] :: 0
NCC1(CC(=O)O)CCCCC1 [gabapentin] :: 0

---

- Tested on: A549-ACTB-RAB5A
- RUN DESCRIPTION: phenotypically active (imaging signature differs from DMSO and reproducible) at any of 0.3-9 uM (binary (1 = active, 0 = inactive)); higher = active
- CONDITION NOTES: treatment time: 24 h
Counter-ions that a name gives are not always drawn.
MEASURED METRIC: phenotypically active

Cc1c(C(=O)Nc2cccc(C(F)(F)F)c2)cc(-c2ccccc2)n1CCCN1CCOCC1 :: 1
N#CC(C#N)=NNc1cccc(Cl)c1 :: 1
COc1ccc(CCN2CCC(Nc3nc4ccccc4n3Cc3ccc(F)cc3)CC2)cc1 [astemizole] :: 1
O=c1[nH]c2ccccc2n1C1CCN(CCCC(c2ccc(F)cc2)c2ccc(F)cc2)CC1 [pimozide] :: 1
O=c1cccc2n1C[C@H]1CNC[C@H]2C1 [Cytisine nitrate hydrate] :: 0
COc1cc2c(c(OC)c1OC)-c1ccc(OC)c(=O)cc1[C@@H](NC(C)=O)CC2 [colchicine] :: 1
O=C(Nc1ccncc1)C(=O)c1cn(Cc2ccc(Cl)cc2)c2ccccc12 [Indibulin] :: 1
COc1ccc(C(=O)Cc2c(CCN(C)C)cc3c(c2OC)OCO3)c(C(=O)O)c1OC [Narcétine] :: 0
Nc1ccncc1 [dalfampridine] :: 0
COc1ccc2c(c[n+](C)c3c4cc5c(cc4ccc23)OCO5)c1OC [Chelerythrine chloride] :: 1
CNCC(O)c1ccc(O)c(OC)c1 (stereo not drawn) [Metanephrine hydrochloride DL] :: 0
Cc1cc2c(C(C)C)c(O)c(O)c(C=O)c2c(O)c1-c1c(C)cc2c(C(C)C)c(O)c(O)c(C=O)c2c1O [gossypol] :: 1
Cc1ccc(C[N+](C)(C)C)o1 [5-Methylfurmethiodide] :: 0
N#Cc1c(Oc2cccc(OS(=O)(=O)CCCC(F)(F)F)c2)cccc1C(F)(F)F :: 0
CC1=C(O)C(=O)[C@@H]2O[C@@H]2C1=O [(-)-Terreic acid] :: 0
CC(C)(N)Cc1ccccc1 [phentermine] :: 0
COc1ccc2c(c1)[C@]13CCCC[C@@H]1[C@H](C2)N(C)CC3 [dextromethorphan] :: 0
CCN1C[C@]2(COC)CC[C@H](OC)[C@]34[C@@H]5C[C@H]6[C@H](OC)[C@@H]5[C@@]5(C[C@@H]6OC)OCO[C@@]5([C@H]13)[C@@H](O)[C@H]24 [Delcorine] :: 0
